// data source = ChEMBL document CHEMBL1201862

system: Malme-3M; experiment: NCI tumour cell line growth inhibition, 48 h
Calls of active or inactive are those of the source. No stated cut-off is given here; in the data, active = GI50 up to about 1.1 µM and inactive = higher.
Give one outcome, nothing more. List: active, inactive

Solved cases below.
COMPOUND	DISCRETE LABEL
CC1(C)Oc2ccccc2[N+]([O-])=C1c1ccccc1	inactive
CC(NC(=O)C(N)CC(=O)O)NC(=O)N(C)C(C)(C)C (stereo not drawn)	inactive
Cc1ccc(NC(=O)CCC(=O)C2Cc3ccccc3C2=O)cc1C (stereo not drawn)	inactive
CCOC(=O)c1[nH]c2nc(SC)nc(Nc3ccccc3Cl)c2c1N	inactive
COc1ccc2c(c1)OCC1Cc3ccccc3OC21 (stereo not drawn)	inactive

Just curious, what result did COc1ccc(Oc2cccc(/C=C3/C(=O)Nc4ccccc43)c2)cc1 get here?
inactive

Just curious, what result did COc1ccc2c(c1)CCc1cc(OC)ccc1/[N+]([O-])=[N+]\2[O-] get here?
inactive

Just curious, what result did CC1CC/C(=C\c2ccc(F)cc2)C2=C1C(c1ccc(F)cc1)N1C(=O)CSC1=N2 (stereo not drawn) get here?
inactive
